- tgt: GSK3β (Homo sapiens, UniProt P49841)
- Sequence (P49841 whole entry, species assumed): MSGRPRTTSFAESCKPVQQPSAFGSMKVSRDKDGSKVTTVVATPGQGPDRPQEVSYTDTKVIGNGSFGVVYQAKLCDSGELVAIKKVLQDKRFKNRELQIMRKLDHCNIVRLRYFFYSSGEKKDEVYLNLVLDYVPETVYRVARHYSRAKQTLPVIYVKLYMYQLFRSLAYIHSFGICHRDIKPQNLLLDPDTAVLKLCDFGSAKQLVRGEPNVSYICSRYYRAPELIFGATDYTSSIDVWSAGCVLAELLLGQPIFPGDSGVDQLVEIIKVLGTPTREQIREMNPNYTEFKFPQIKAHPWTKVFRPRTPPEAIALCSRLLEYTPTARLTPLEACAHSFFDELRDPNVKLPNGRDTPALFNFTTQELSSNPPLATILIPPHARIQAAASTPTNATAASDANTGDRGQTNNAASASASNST
- experimental_details: GSK3β ATP depletion assay
- Assay type: biochemical
- study_conditions: read-out: GSK3b IC50
attribute_measured: pIC50
By convention, pIC50 is the negative base-10 log of a molar concentration.

Some molecules with known pIC50 results, for comparison:
[[record]]
smiles_notation = "C[C@@H]1O[C@H](c2ccncc2NC(=O)c2nc(-c3ccccc3)cnc2N)[C@@H](F)[C@H](O)[C@@]1(C)O"
result_value = 8.70

[[record]]
smiles_notation = "C[C@H]1C[C@@H](N)C[C@@H](c2ccncc2NC(=O)c2ccc(F)c(-c3c(F)cccc3F)n2)O1"
result_value = 5.47

[[record]]
smiles_notation = "O=C(Nc1cnccc1[C@@]1(C(F)(F)F)C[C@@H](O)C=CO1)c1ccc(F)c(-c2c(F)cccc2F)n1"
result_value = 5.44


Prompt: Request - read-out pIC50 | tested on GSK3β (Homo sapiens, UniProt P49841) | molecule Nc1cnc(-c2c(F)cccc2F)nc1C(=O)Nc1cnccc1[C@H]1C[C@@H](O)[C@H](O)[C@@H](C2CC2)O1
Completion: 6.24

###

- tgt: GSK3β (Homo sapiens)
- experimental_details: GSK3β ATP depletion assay
- Type: biochemical
- study_conditions: read-out: GSK3b IC50
attribute_measured: pIC50
Lab note — pIC50 values are minus log10 of concentrations in M.

Here are 5 compounds together with their reported answers.
[[record]]
compound = "[2H][C@@H]1[C@@H](O)[C@H](O)[C@@H](CC)O[C@@]1([2H])c1ccncc1NC(=O)c1ccc(F)c(-c2c(F)cccc2F)n1"
attribute_measured = "pIC50"
result_value = 6.88

[[record]]
compound = "C=C[C@H]1O[C@@H](c2ccncc2NC(=O)c2nc(-c3c(F)cccc3F)ncc2N)C[C@@H](O)[C@@H]1O"
attribute_measured = "pIC50"
result_value = 5.84

[[record]]
compound = "O=C(Nc1cnccc1[C@H]1C[C@@H](O)[C@@]2(O)CCCC[C@H]2O1)c1ccc(F)c(-c2c(F)cccc2F)n1"
attribute_measured = "pIC50"
result_value = 7.70

[[record]]
compound = "C[C@H]1[C@H](O)C[C@H](c2ccncc2NC(=O)c2csc(-c3c(F)cccc3F)n2)O[C@@H]1C (stereo in doubt)"
attribute_measured = "pIC50"
result_value = 7.49

[[record]]
compound = "O=C(Nc1cnccc1[C@@H]1C[C@H](O)[C@]2(O)CCCC[C@@H]2O1)c1ccnn(-c2ccccc2F)c1=O"
attribute_measured = "pIC50"
result_value = 5.97


Next compound, please.
Prompt: Given CC[C@H]1O[C@@H](c2ccncc2NC(=O)c2c[nH]cc(-c3ccccc3F)c2=O)C[C@@H](O)[C@@H]1O , state its recorded pIC50.
Completion: 5.36

###

- tgt: cABLT315 kinase (Homo sapiens, UniProt P00519)
- experimental_details: cABLT315 kinase Caliper assay
- Format: biochemical
- study_conditions: Caliper assay
attribute_measured: IC50

Prompt: Give IC50 (cABLT315 kinase (Homo sapiens, UniProt P00519)) of the following compound: CC1(C)C[C@@H](N)C[C@H](c2ccncc2NC(=O)c2nc(-c3ccccc3)cnc2N)O1
Completion: 0.11 µM

Prompt: Next compound: CC[C@]1(O)[C@H](N)C[C@H](c2ccncc2NC(=O)c2ccc(F)c(-c3c(F)cccc3F)n2)O[C@@H]1C
Completion: > 10 µM

Prompt: Would you kindly repeat that for N[C@@H]1C[C@H](c2ccncc2NC(=O)c2ccc(F)c(-c3c(F)cccc3F)n2)O[C@@H]2CCC[C@H]12 ?
Completion: > 10 µM
